tested on: PIP5K1A; details: concentration: 1 μM, replicates: in singlicate; n = 1;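 also: KINOMEscan kinase panel screen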
value.type: %Inh (%)
Dear colleague, please return just the value in %, with no unit written.

So the reported %Inh for Cc1ccc(S(=O)(=O)Nc2ccc(Nc3nccc(Nc4cccc5[nH]ncc45)n3)cc2)cc1 , on PIP5K1A, turned out to be 0

Test item Cc1ccc(C(=O)N2CC[C@@H](O)C2)cc1-n1c(C)cc(OCc2ccc(F)cc2F)c(Br)c1=O ; PIP5K1A; reported %Inh was 0

Tested system PIP5K1A; %Inh recorded for CN1CCN(CCCNc2nccc(-c3c(-c4ccc(F)cc4)nn4cc(C(F)(F)F)ccc34)n2)CC1 was 0

Simply: Nc1n[nH]c2cnc(-c3ccccc3)cc12 , PIP5K1A, %Inh = 40

Case O=c1[nH]cc(-c2ccc(N3CCOCC3)cc2)c2sc(-c3cn[nH]c3)cc12 , PIP5K1A, %Inh recorded as 0

Tested on PIP5K1A: Cc1ccc(C(=O)Nc2ccc(Nc3ccnc4cc(-c5nccs5)ccc34)cc2O)cc1.Cl . Observed %Inh: 0

Result for NCCCC(NC(=O)c1cc(Br)c(-c2ccnc3[nH]ccc23)s1)c1ccccc1.O=C(O)C(F)(F)F.O=C(O)C(F)(F)F (centres unmarked) , tested on PIP5K1A, %Inh: 72

Value (%Inh, PIP5K1A) for record COc1ccc(-c2coc3ccc(-c4nnc(SCc5ccc(OC)c(C(F)(F)F)c5)o4)cc23)cc1 = 0

----------
system: DYRK1B; conditions: concentration: 1 μM, replicates: in singlicate; n = 1
Label true (1) when %Inh is at or above 20%; anything below gets false (0).

Identify whether the reported %Inh of the following compound is 20% or greater: CN(C)Cc1ccc(-c2ccc3c(Nc4ccc(Oc5ccccn5)cc4)ccnc3c2)o1 false (0)

Threshold query (%Inh >= 20%) on CN1CCN(Cc2cccc(-c3ccc4c(Nc5ccc(Oc6ccccc6)cc5)ccnc4c3)c2)CC1 false (0)

hey, is %Inh for this one >= 20%? COc1cccc(C(=O)Nc2cccc(Oc3ccc4nc(NC(=O)C5CC5)cn4n3)c2)c1 false (0)

Check this compound for %Inh at or above 20%: c1ccc(-c2cnc3nccnn23)cc1 false (0)

Has COc1ccc(CNC(=O)NC2CCN(c3ccnc(Nc4ccc(F)cc4)n3)CC2)cc1 a recorded %Inh greater than or equal to 20%? false (0)

Decide: %Inh of CCc1ccc(-c2ccc3c(c2)-c2c(cnn2C)S(=O)(=O)N3C)cc1 >= 20%? false (0)

Check if %Inh >= 20% (inclusive). Item: Nc1n[nH]c2cnc(-c3ccccc3)cc12 true (1)

Decide: is the reported value of %Inh for Cc1occc1-c1ncc(OC[C@@H](N)Cc2c[nH]c3ccccc23)cc1-c1ccc2[nH]nc(C)c2c1.O=C(O)C(F)(F)F equal to or greater than 20%? false (0)

Has COc1cccc(-c2ccc3c(NC(=O)C4CC4)n[nH]c3n2)c1 a recorded %Inh greater than or equal to 20%? false (0)

Could you tell me if the measured %Inh of CC(=O)N1CCN(c2ccc(Nc3nccc(-c4sc(C(C)C)nc4-c4cccc(NS(=O)(=O)c5cccc(Cl)c5)c4)n3)cn2)CC1 reaches 20% or more? false (0)

Confirm if %Inh reported for the compound O=C(Nc1n[nH]c2cc(-c3ccoc3)ccc12)C1CC1 is 20% or above. true (1)

Form field: %Inh at least 20%? Entry: CCn1c(-c2nonc2N)nc2c(C#CC(C)(C)O)nc(OC[C@H](N)c3ccccc3)cc21 false (0)

Kindly determine if %Inh recorded for O=C(Nc1cccc(-c2nn3ncccc3c2-c2ccnc(Nc3ccccc3)n2)c1)c1c(F)cccc1F is above or exactly 20%. true (1)

Textbook exercise: given the entry Cl.Cl.NCC(NC(=O)c1cc(-c2ccccc2)c(-c2ccnc3[nH]ccc23)s1)c1ccccc1 (centres unmarked) , state whether its %Inh is greater than or equal to 20%. true (1)

Does the reported %Inh for COc1cc(Nc2ncc3c(C)nc(-c4cc5ccccc5[nH]4)n3n2)cc(OC)c1OC fall at or above the 20% mark? true (1)

Can Cn1cc(-c2ccc3c(c2)CCN3C(=O)Cc2cccc(Cl)c2)c2c(N)ncnc21 be said to have %Inh at or above 20%? false (0)

Does the reported %Inh for COc1cccc(C2=C(Nc3ccc(Cl)c(C(=O)O)c3)C(=O)NC2=O)c1 fall at or above the 20% mark? true (1)

Check this compound for %Inh at or above 20%: Cc1cccc(NC(=O)Nc2ccc(Oc3ncnc4ccn(C)c34)cc2)c1 false (0)

Item O=C(Nc1cccc(Oc2ccc3nc(NC(=O)C4CC4)cn3n2)c1)c1ccccc1C(F)(F)F with %Inh of 20% or above? false (0)

Does the compound CN(C)S(=O)(=O)c1cc(-c2ccc3nccc(-c4cccc(S(N)(=O)=O)c4)c3c2)cnc1N have recorded %Inh that is 20% or more? false (0)

Is %Inh for NCCCC(NC(=O)c1cc(Br)c(-c2ccnc3[nH]ccc23)s1)c1ccccc1.O=C(O)C(F)(F)F.O=C(O)C(F)(F)F (centres unmarked) at or above 20%? true (1)

Entry Nc1ncc(-c2cccnc2)c2scc(-c3ccc4c(c3)CCN4C(=O)Cc3ccccc3)c12 : is its %Inh no less than 20%? true (1)

Answer whether %Inh of COc1cc2c(cc1OCCN1CCNCC1)ncc1c3ccc(C#N)cc3[nH]c21 is greater than or equal to 20%. true (1)

Determine whether this compound has %Inh no lower than 20%: COCCOCCOc1cc2ncc3c4ccc(C#N)cc4[nH]c3c2cc1OC true (1)

Does COc1cccc(NC(=O)NC2CCN(c3ccnc(Nc4cc(OC)c(OC)c(OC)c4)n3)C2)c1 (centres unmarked) have a reported %Inh of at least 20%? false (0)

Given the entry Nc1ncnc2c1nc(-c1ccccc1)n2-c1ccccc1 , answer whether its %Inh meets or surpasses 20%. false (0)
